Every entry's value here was drawn from ChEMBL document CHEMBL2331361.

assay: Intrinsic clearance in rat hepatocytes assessed per million cells; type: ADME, cell-based, Hepatocyte; conditions: read-out: CLH
endpoint-label: hepatocyte CLint (µL/min/1e6 cells)
Note: unit µL/min/1e6 cells is implicit; provide only the numeric part.

Could you share which hepatocyte CLint value was measured for Cc1cn([C@H]2CCCN(S(=O)(=O)c3ccc(O)c(Oc4cccc(Cl)c4)c3)C2)c(=O)[nH]c1=O ?
45

----------
Recorded measurements of pIC50, one per entry
experiment: Inhibition of Staphylococcus aureus thymidylate kinase
The read-out pIC50 is expressed as -log10 of concentration in moles per litre.

Some molecules with known pIC50 results, for comparison:
structure=Cc1cn([C@H]2CCCN(S(=O)(=O)c3ccc(C#N)c(Oc4cccc(Cl)c4)c3)C2)c(=O)[nH]c1=O value_observed=6.28
structure=COc1ccc(S(=O)(=O)N2CCC[C@H](n3cc(C)c(=O)[nH]c3=O)C2)cc1Oc1cccc(Cl)c1 value_observed=6.45
structure=Cc1cn([C@H]2CCCN(S(=O)(=O)c3ccc(C(N)=O)c(Oc4cccc(Cl)c4)c3)C2)c(=O)[nH]c1=O value_observed=6.11
structure=Cc1cn([C@H]2CCCN(S(=O)(=O)c3ccc(O)c(Oc4ccccc4)c3)C2)c(=O)[nH]c1=O value_observed=6.59
structure=Cc1cn([C@H]2CCCN(S(=O)(=O)c3ccc(O)c(Oc4cc(F)cc(Cl)c4)c3)C2)c(=O)[nH]c1=O value_observed=7.92

Entry Cc1cn([C@H]2CCCN(S(=O)(=O)c3ccc(CO)c(Oc4cccc(Cl)c4)c3)C2)c(=O)[nH]c1=O : reported pIC50 = ?
6.21

Cc1cn([C@H]2CCCN(S(=O)(=O)c3cccc(Oc4ccc(Cl)c(Cl)c4)c3)C2)c(=O)[nH]c1=O , same question.
5.56

----------
Listed next: entries and their corresponding MIC.
tested on: Staphylococcus aureus; assay: Antimicrobial activity against methicillin- and quinolone-resistant Staphylococcus aureus ARC517; format: functional
# value in µg/mL; strip the unit string

Previously resolved entries follow.
structure=Cc1cn([C@H]2CCCN(S(=O)(=O)c3ccc(O)c(Oc4ccc(Cl)cc4)c3)C2)c(=O)[nH]c1=O endpoint_label=MIC value_observed=2
structure=Cc1cn([C@H]2CCCN(S(=O)(=O)c3ccc(O)c(Oc4cccc(Br)c4)c3)C2)c(=O)[nH]c1=O endpoint_label=MIC value_observed=0.5
structure=Cc1cn([C@H]2CCCN(S(=O)(=O)c3ccc(O)c(Oc4ccccc4)c3)C2)c(=O)[nH]c1=O endpoint_label=MIC value_observed=16

Please look at the following compound next.
Entry under review: COc1ccc(S(=O)(=O)N2CCC[C@H](n3cc(C)c(=O)[nH]c3=O)C2)cc1Oc1cccc(Cl)c1 . Reported MIC?
16

----------
biological target: Cytochrome P450 2C19 (Homo sapiens, UniProt P33261)
Sequence (P33261 whole entry): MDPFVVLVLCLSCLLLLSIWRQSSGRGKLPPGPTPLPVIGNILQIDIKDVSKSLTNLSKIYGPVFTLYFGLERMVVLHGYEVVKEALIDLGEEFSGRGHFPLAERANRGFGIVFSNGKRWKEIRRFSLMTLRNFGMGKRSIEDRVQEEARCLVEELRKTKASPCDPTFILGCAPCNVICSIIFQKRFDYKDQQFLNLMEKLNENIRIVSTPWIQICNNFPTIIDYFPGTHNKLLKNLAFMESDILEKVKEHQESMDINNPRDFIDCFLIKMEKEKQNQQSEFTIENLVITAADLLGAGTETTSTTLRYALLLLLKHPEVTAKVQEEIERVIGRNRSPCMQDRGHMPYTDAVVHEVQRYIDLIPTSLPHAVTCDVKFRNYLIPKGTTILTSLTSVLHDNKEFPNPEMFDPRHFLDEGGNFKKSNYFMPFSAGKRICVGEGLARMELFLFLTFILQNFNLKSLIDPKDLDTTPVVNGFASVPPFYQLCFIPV
endpoint-label: IC50

What does the record list as IC50 for Cc1cn([C@H]2CCCN(S(=O)(=O)c3ccc(O)c(Oc4cccc(Cl)c4)c3)C2)c(=O)[nH]c1=O ?
> 20 µM

----------
assay: Inhibition of Streptococcus pneumoniae thymidylate kinase
endpoint-label: IC50 (nM)
Field format: number, assumed nM, no unit text.

Illustrative cases are given below, each with its answer.
structure=Cc1cn([C@H]2CCCN(S(=O)(=O)c3ccc(O)c(Oc4ccc(Cl)cc4)c3)C2)c(=O)[nH]c1=O value_observed=8
structure=Cc1cn([C@H]2CCCN(S(=O)(=O)c3ccc(CO)c(Oc4cccc(Cl)c4)c3)C2)c(=O)[nH]c1=O value_observed=28
structure=Cc1cn([C@H]2CCCN(S(=O)(=O)c3cccc(Oc4ccc(Cl)c(Cl)c4)c3)C2)c(=O)[nH]c1=O value_observed=292
structure=Cc1cn([C@H]2CCCN(S(=O)(=O)c3ccc(O)c(Oc4ccccc4)c3)C2)c(=O)[nH]c1=O value_observed=14
structure=Cc1cn([C@H]2CCCN(S(=O)(=O)c3ccc(C#N)c(Oc4cccc(Cl)c4)c3)C2)c(=O)[nH]c1=O value_observed=23
structure=Cc1cn([C@H]2CCCN(S(=O)(=O)c3ccc(O)c(Oc4cccc(F)c4)c3)C2)c(=O)[nH]c1=O value_observed=4
structure=Cc1cn([C@H]2CCCN(S(=O)(=O)c3ccc(O)c(Oc4cccc(C(F)(F)F)c4)c3)C2)c(=O)[nH]c1=O value_observed=3
structure=Cc1cn([C@H]2CCCN(S(=O)(=O)c3ccc(O)c(Oc4cccc(Br)c4)c3)C2)c(=O)[nH]c1=O value_observed=0.7

Look up IC50 for this molecule: Cc1cn([C@H]2CCCN(S(=O)(=O)c3ccc(O)c(Oc4cc(F)cc(Cl)c4)c3)C2)c(=O)[nH]c1=O
0.7

Thanks! And Cc1cn([C@H]2CCCN(S(=O)(=O)c3ccc(C(=O)O)c(Oc4cccc(Cl)c4)c3)C2)c(=O)[nH]c1=O ?
1
